# Tested on: NCI-H23
# EXPERIMENTAL_PROTOCOL: NCI tumour cell line growth inhibition, 48 h
Calls of active or inactive are those of the source. Cut-off read from the data, not from the text of the source: active = GI50 up to about 1.1 µM and inactive = higher.
# maps each entry to its GI50

Here's what some known entries look like.
| COMPOUND | GI50 |
| --- | --- |
| OCCN(C1=NCCN1)/[N+](=C\c1ccccn1)[CH-]c1ccccn1 | > 100 µM (inactive) |
| Cc1nnc(N)nc1/C=C\c1cccs1 | 17.6 µM (inactive) |
| O=C1CSC2=NC3=C(COC/C3=C\c3ccc(Br)cc3)C(c3ccc(Br)cc3)N12 (stereo unspecified) | 90.6 µM (inactive) |
| CCn1c(-c2ccccc2)cs/c1=N\C(P(=O)(O)O)P(=O)(O)O | > 100 µM (inactive) |
| CCOC(=O)/C(O)=C/c1cc(OC)cc(=O)o1 | > 100 µM (inactive) |
| N/C(=N\c1ccc(Cl)cc1)NS(=O)(=O)c1ccc(-c2ncccc2C(F)(F)F)s1 | 13.5 µM (inactive) |
| COC(=N)CCCl | > 100 µM (inactive) |
| COc1ccc(C(OCC2OC(n3cc(C)c(=O)[nH]c3=O)CC2n2cc(Cn3cc(Cl)c(=O)[nH]c3=O)nn2)(c2ccccc2)c2ccccc2)cc1 (stereo unspecified) | > 100 µM (inactive) |

The recorded GI50 for COc1cc2c(cc1OC)[C@@H](Nc1ccc(F)cc1)C1COC(=O)[C@@H]1C2c1cc(OC)c(O)c(OC)c1 (stereo partly specified) is 0.632 µM (active)

The recorded GI50 for COc1cc([C@@H]2c3cc4c(c(O[C@@H]5O[C@H]6CO[C@@H](C)O[C@H]6[C@H](O)[C@@H]5O)c3C[C@H]3COC(=O)[C@@H]32)OCO4)cc(OC)c1O is 15.1 µM (inactive)

The recorded GI50 for CC1=CC(=O)/C(=C/NC(=S)c2ccccc2)C(=O)O1 is > 100 µM (inactive)

The recorded GI50 for CC(=O)CC(=O)N1CCSC1=S is > 10 µM (inactive)

The recorded GI50 for CC1(C)NC2C(=O)c3c([nH]c4ccccc34)[C@]3(C)CCC1CC23 (stereo partly specified) is > 100 µM (inactive)

The recorded GI50 for O=c1[nH]nc(Cc2ccccc2)n1/N=C/c1c(O)ccc2ccccc12 is 27.2 µM (inactive)

The recorded GI50 for Cn1c(=O)c(NC(=O)C(Cl)(Cl)Cl)nc2ccccc21 is > 100 µM (inactive)

The recorded GI50 for COC(=O)C1=C(C)NC(C)=C(C(=O)OC)C1c1ccc(N=O)cc1 is 16.2 µM (inactive)

* * *

# System: HT-29
# EXPERIMENTAL_PROTOCOL: NCI tumour cell line growth inhibition, 48 h
Active and inactive are the calls of the source. No stated cut-off is given here; in the data, active = GI50 up to about 1.1 µM and inactive = higher.
OUTCOME_MEASURE: GI50

| COMPOUND | OBSERVED |
| --- | --- |
| CN1CCCN(C)C1c1cc([N+](=O)[O-])ccc1O | 33.8 µM (inactive) |

Now examine the next entry.
The recorded GI50 for C=C(C)C12OC3(c4ccccc4)OC1C1C4OC4(CO)C(O)C4(O)C(=O)C(C)=CC4C1(O3)C(C)C2OC(=O)/C=C/C=C/c1ccccc1 (stereo not given) is 0.0836 µM (active)

* * *

# Test system: UACC-62
# EXPERIMENTAL_PROTOCOL: NCI tumour cell line growth inhibition, 48 h
The source made the active and inactive calls. Cut-off read from the data, not from the text of the source: active = GI50 up to about 1.1 µM and inactive = higher.
The categories you may choose from are active, inactive

Example results:
| COMPOUND | CLASS_ASSIGNMENT |
| --- | --- |
| O=C1CSC2=NC3=C(COC/C3=C\c3ccc(Br)cc3)C(c3ccc(Br)cc3)N12 (stereo not drawn) | inactive |
| COc1ccccc1NC(=O)CC(=O)n1nc(-c2ccccc2)c(/N=N/c2ccccc2[N+](=O)[O-])c1-c1ccccc1 | inactive |
| O=C1N2Cc3c4ccc5c3CN3C(=O)N6Cc7c(ccc(c7CN1C6(c1ccccc1)C23c1ccccc1)OCCOCCOc1cc(Br)c(Br)cc1OCCOCCO4)OCCOCCOc1cc(Br)c(Br)cc1OCCOCCO5 (stereo not drawn) | inactive |
| Cc1ccc(S(=O)(=O)n2c3c(c4ccccc42)CCN2CCC(Br)C[C@@H]32)cc1 (stereo partly drawn) | inactive |
| O=C(OC1C2OC(=O)c3cc(O)c(O)c(O)c3Oc3cc4c(c(O)c3O)-c3c(cc(O)c(O)c3O)C(=O)OCC3OC(O)C(OC(=O)c5cc(O)c(O)c(O)c5Oc5cc6c(c(O)c5O)-c5c(cc(O)c(O)c5O)C(=O)OC1C(COC6=O)OC2O)C(OC(=O)c1cc(O)c(O)c(O)c1)C3OC4=O)c1cc(O)c(O)c(O)c1 (stereo not drawn) | inactive |

Now take the following compound into account.
Could you check what this test reported for Cc1c(C)c(C)c(Cn2[nH]c(=O)n(C)c2=O)c(C)c1C ?
inactive

* * *

# System: UO-31
# EXPERIMENTAL_PROTOCOL: NCI tumour cell line growth inhibition, 48 h
Calls of active or inactive are those of the source. Cut-off read from the data, not from the text of the source: active = GI50 up to about 1.1 µM and inactive = higher.
The categories you may choose from are active, inactive

| COMPOUND | EXPERIMENTAL_SYSTEM | CLASS_ASSIGNMENT |
| --- | --- | --- |
| COC(=O)C1Cc2cc3c(cc2C1=O)CCCC3 (stereo not drawn) | UO-31 | inactive |
| C1=N\CCOCC/N=C/c2ccccc2OCc2cccc(n2)COc2ccccc2/1 | UO-31 | inactive |
| C[C@@]1(Br)C[C@@](C)(Cl)[C@@H](Br)CC1/C=C/Cl (stereo partly drawn) | UO-31 | inactive |

Could you check what this test reported for COC(=O)c1cc2c3ccccc3n(C(C)=O)c2cn1 ?
inactive

Could you check what this test reported for CC(=O)O[C@]12CCCCCCC1C1(O)C(O)CCC[C@H]12 (stereo partly drawn) ?
inactive

Could you check what this test reported for S=c1nc(Nc2ccccc2)c2c3c(sc2[nH]1)CCCC3 ?
inactive

Could you check what this test reported for C[P+](C)(C)C ?
inactive

Could you check what this test reported for COc1cc2c(cc1OC)C(=O)/C(=C/c1ccc(O)cc1)CC2 ?
inactive

Could you check what this test reported for COc1c(OC)c(O)c2c(=O)c(OC)c(-c3ccc4c(c3)OCO4)oc2c1O ?
inactive

Could you check what this test reported for O=C(/C=C/c1ccccc1)Oc1cccc(Br)c1 ?
inactive

Could you check what this test reported for CC(NC1=NCCO1)c1cccc([N+](=O)[O-])c1 (stereo not drawn) ?
inactive

* * *

# System: SF-268
# EXPERIMENTAL_PROTOCOL: NCI tumour cell line growth inhibition, 48 h
Activity calls are given as the source filed them. Rule as the data show it: active = GI50 up to about 1.1 µM and inactive = higher.
# maps each entry to its GI50

| COMPOUND | EXPERIMENTAL_SYSTEM | GI50 |
| --- | --- | --- |
| O=C(O)c1ccc(NC(c2ccccc2)c2ccc3cccnc3c2O)cc1 (stereo unspecified) | SF-268 | 7.1 µM (inactive) |

The recorded GI50 for COc1ccc2c(c1)CN1C(=N2)CSC1c1cc([N+](=O)[O-])ccc1Cl (stereo unspecified) is 46.6 µM (inactive)

The recorded GI50 for CC(=O)NC(CCCN)C(=O)NCc1ccccc1 (stereo unspecified) is > 100 µM (inactive)

The recorded GI50 for Cc1ccc(S(=O)(=O)n2cc(/C=C/C#N)c(-c3cn(S(=O)(=O)c4ccc(C)cc4)cc3-c3cn(S(=O)(=O)c4ccc(C)cc4)cc3/C=C/C#N)c2)cc1 is > 100 µM (inactive)

* * *

# Tested on: K562
# EXPERIMENTAL_PROTOCOL: NCI tumour cell line growth inhibition, 48 h
Active and inactive are the calls of the source. Cut-off read from the data, not from the text of the source: active = GI50 up to about 1.1 µM and inactive = higher.
The categories you may choose from are label 1 (active), label 0 (inactive)

Example results:
| COMPOUND | CLASS_ASSIGNMENT |
| --- | --- |
| CC1Oc2c(c(=O)oc3ccccc23)[C@@]1(C)CC1C[C@H](C)C(=O)O1 (some centres not stated) | label 0 |
| O=c1c2c3c(sc2nc(S)n1-c1ccccc1)CCCc1ccc([N+](=O)[O-])cc1-3 | label 0 |
| Nc1nnc2nc(CC(=O)/C=C/c3ccccc3)c(=O)[nH]n12 | label 0 |
| CC(C)C1COC(C(C)(C)C2=N[C@@H](C(C)C)CO2)=N1 (some centres not stated) | label 0 |

Could you check what this test reported for CCCCCCN1C(=O)CC(=O)N(CCCCCC)S1(=O)=O ?
label 0

Could you check what this test reported for Clc1ccc2c(c1)[nH]c1c2nc2sccn21 ?
label 0

Could you check what this test reported for Cn1c2c(c3ccccc31)C1C(=O)N(c3ccccc3)C(=O)C1CC2 (configuration not stated) ?
label 0

Could you check what this test reported for O=Cc1cc(O)c(O)c(O)c1-c1c(C=O)cc(O)c(O)c1O ?
label 0

Could you check what this test reported for CN(C)N1C(=O)CC2(CCN(CCCC(=O)c3ccc(F)cc3)CC2)C1=O ?
label 0

Could you check what this test reported for COC(=O)c1cc2c3ccccc3n(C(C)=O)c2cn1 ?
label 0

Could you check what this test reported for CC(=O)Nc1oc(C)nc1C#N ?
label 0

Could you check what this test reported for CCSCCCN(CCCSCC)CCCSCC ?
label 0

Could you check what this test reported for Cc1cccc(O)c1-c1nnc(CCCCCCCCc2nnc(-c3c(C)cccc3O)n2N)n1N ?
label 0
